From: paper PMC6125496

assay-procedure: in vitro
assay-setup: monkey, plasma, pH 7.4
Non-standard residues stand in square brackets, D forms with d. Residues, ends and D or L forms follow the SMILES beside them. Dab(3S-OH) = NC[C@H](O)[C@H](N)C(=O)O; Phe(2-F) = N[C@@H](Cc1ccccc1F)C(=O)O; ΔZArg = N=C(N)NCC/C=C(\N)C(=O)O; dOrn = NCCC[C@@H](N)C(=O)O; Dab = NCC[C@H](N)C(=O)O
recorded-endpoint: half-life at 10 μM (h)

>  <compound>
N=C(N)NCC/C=C(\NC(=O)[C@H](CCCCN)NC(=O)[C@H](Cc1ccccc1F)NC(=O)[C@@H]1CCCN1C(=O)[C@@H](CCCN)NC(=O)CNC(=O)[C@H](CCN)NC(=O)[C@@H](NC(=O)[C@@H](N)CCCCN)[C@@H](O)CN)C(=O)O [NOSO-502] (H-K[Dab(3S-OH)][Dab]G[dOrn]P[Phe(2-F)]K[ΔZArg]-OH)

>  <value-units>
h

>  <obs-value>
1.6

$$$$

###

assay-procedure: in vitro
assay-setup: rat, liver microsomes, pH 7.4
Non-standard residues stand in square brackets, D forms with d. Residues, ends and D or L forms follow the SMILES beside them. Dab(3S-OH) = NC[C@H](O)[C@H](N)C(=O)O; Phe(2-F) = N[C@@H](Cc1ccccc1F)C(=O)O; ΔZArg = N=C(N)NCC/C=C(\N)C(=O)O; dOrn = NCCC[C@@H](N)C(=O)O; Dab = NCC[C@H](N)C(=O)O

>  <molecule>
N=C(N)NCC/C=C(\NC(=O)[C@H](CCCCN)NC(=O)[C@H](Cc1ccccc1F)NC(=O)[C@@H]1CCCN1C(=O)[C@@H](CCCN)NC(=O)CNC(=O)[C@H](CCN)NC(=O)[C@@H](NC(=O)[C@@H](N)CCCCN)[C@@H](O)CN)C(=O)O [NOSO-502] (H-K[Dab(3S-OH)][Dab]G[dOrn]P[Phe(2-F)]K[ΔZArg]-OH)

>  <value-units>
h

>  <half-life at 1 μM>
2.15

$$$$

###

assay-procedure: in vitro
assay-setup: human, plasma, pH 7.4
Non-standard residues stand in square brackets, D forms with d. Residues, ends and D or L forms follow the SMILES beside them. Dab(3S-OH) = NC[C@H](O)[C@H](N)C(=O)O; Phe(2-F) = N[C@@H](Cc1ccccc1F)C(=O)O; ΔZArg = N=C(N)NCC/C=C(\N)C(=O)O; dOrn = NCCC[C@@H](N)C(=O)O; Dab = NCC[C@H](N)C(=O)O
recorded-endpoint: half-life at 10 μM (h)

>  <molecule>
N=C(N)NCC/C=C(\NC(=O)[C@H](CCCCN)NC(=O)[C@H](Cc1ccccc1F)NC(=O)[C@@H]1CCCN1C(=O)[C@@H](CCCN)NC(=O)CNC(=O)[C@H](CCN)NC(=O)[C@@H](NC(=O)[C@@H](N)CCCCN)[C@@H](O)CN)C(=O)O [NOSO-502] (H-K[Dab(3S-OH)][Dab]G[dOrn]P[Phe(2-F)]K[ΔZArg]-OH)

>  <value-units>
h

>  <obs-value>
1.32

$$$$

###

study-system: hERG (Homo sapiens, UniProt Q12809)
Sequence (Q12809 whole entry): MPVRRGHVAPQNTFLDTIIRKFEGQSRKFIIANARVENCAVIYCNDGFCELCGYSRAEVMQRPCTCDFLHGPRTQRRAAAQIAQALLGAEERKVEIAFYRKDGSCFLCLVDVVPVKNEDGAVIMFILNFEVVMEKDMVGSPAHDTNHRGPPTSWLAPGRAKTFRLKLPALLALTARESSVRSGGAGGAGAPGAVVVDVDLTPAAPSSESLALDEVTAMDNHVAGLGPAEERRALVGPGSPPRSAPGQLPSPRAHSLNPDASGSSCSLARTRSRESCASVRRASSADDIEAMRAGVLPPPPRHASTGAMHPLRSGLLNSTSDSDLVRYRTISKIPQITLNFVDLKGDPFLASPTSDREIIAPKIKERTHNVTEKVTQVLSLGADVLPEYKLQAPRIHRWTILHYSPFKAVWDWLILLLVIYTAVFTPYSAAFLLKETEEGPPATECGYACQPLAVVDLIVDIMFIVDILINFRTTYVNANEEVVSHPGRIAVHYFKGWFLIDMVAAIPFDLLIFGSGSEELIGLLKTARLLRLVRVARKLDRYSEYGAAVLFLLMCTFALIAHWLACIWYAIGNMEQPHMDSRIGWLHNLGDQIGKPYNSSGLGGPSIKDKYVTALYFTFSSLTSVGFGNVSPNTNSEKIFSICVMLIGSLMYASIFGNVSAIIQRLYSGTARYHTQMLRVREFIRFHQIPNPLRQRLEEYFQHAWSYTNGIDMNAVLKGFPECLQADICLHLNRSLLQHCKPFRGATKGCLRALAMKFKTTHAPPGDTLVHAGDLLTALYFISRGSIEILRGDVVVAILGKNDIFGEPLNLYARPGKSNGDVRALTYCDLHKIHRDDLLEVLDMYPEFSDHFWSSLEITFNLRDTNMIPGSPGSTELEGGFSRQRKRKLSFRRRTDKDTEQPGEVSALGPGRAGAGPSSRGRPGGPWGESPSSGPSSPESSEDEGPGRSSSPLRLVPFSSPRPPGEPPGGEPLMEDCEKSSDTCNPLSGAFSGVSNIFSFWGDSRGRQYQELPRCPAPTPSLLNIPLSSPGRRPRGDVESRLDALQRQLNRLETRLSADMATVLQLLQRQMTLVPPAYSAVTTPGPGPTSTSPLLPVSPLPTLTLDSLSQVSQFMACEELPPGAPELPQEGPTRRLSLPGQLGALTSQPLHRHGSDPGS
assay-procedure: in vitro
Non-standard residues stand in square brackets, D forms with d. Residues, ends and D or L forms follow the SMILES beside them. Dab(3S-OH) = NC[C@H](O)[C@H](N)C(=O)O; Phe(2-F) = N[C@@H](Cc1ccccc1F)C(=O)O; ΔZArg = N=C(N)NCC/C=C(\N)C(=O)O; dOrn = NCCC[C@@H](N)C(=O)O; Dab = NCC[C@H](N)C(=O)O

>  <compound>
N=C(N)NCC/C=C(\NC(=O)[C@H](CCCCN)NC(=O)[C@H](Cc1ccccc1F)NC(=O)[C@@H]1CCCN1C(=O)[C@@H](CCCN)NC(=O)CNC(=O)[C@H](CCN)NC(=O)[C@@H](NC(=O)[C@@H](N)CCCCN)[C@@H](O)CN)C(=O)O [NOSO-502] (H-K[Dab(3S-OH)][Dab]G[dOrn]P[Phe(2-F)]K[ΔZArg]-OH)

>  <study-system>
hERG (Homo sapiens, UniProt Q12809)

>  <inhibition at 5 min, 512 µM / %>
1.9

$$$$

###

assay-procedure: in vitro
assay-setup: dog, plasma, pH 7.4
Non-standard residues stand in square brackets, D forms with d. Residues, ends and D or L forms follow the SMILES beside them. Dab(3S-OH) = NC[C@H](O)[C@H](N)C(=O)O; Phe(2-F) = N[C@@H](Cc1ccccc1F)C(=O)O; ΔZArg = N=C(N)NCC/C=C(\N)C(=O)O; dOrn = NCCC[C@@H](N)C(=O)O; Dab = NCC[C@H](N)C(=O)O

>  <compound>
N=C(N)NCC/C=C(\NC(=O)[C@H](CCCCN)NC(=O)[C@H](Cc1ccccc1F)NC(=O)[C@@H]1CCCN1C(=O)[C@@H](CCCN)NC(=O)CNC(=O)[C@H](CCN)NC(=O)[C@@H](NC(=O)[C@@H](N)CCCCN)[C@@H](O)CN)C(=O)O [NOSO-502] (H-K[Dab(3S-OH)][Dab]G[dOrn]P[Phe(2-F)]K[ΔZArg]-OH)

>  <value-units>
h

>  <half-life at 10 μM>
2.63

$$$$

###

assay-procedure: in vitro
assay-setup: mouse, cryopreserved pooled hepatocytes
Non-standard residues stand in square brackets, D forms with d. Residues, ends and D or L forms follow the SMILES beside them. Dab(3S-OH) = NC[C@H](O)[C@H](N)C(=O)O; Phe(2-F) = N[C@@H](Cc1ccccc1F)C(=O)O; ΔZArg = N=C(N)NCC/C=C(\N)C(=O)O; dOrn = NCCC[C@@H](N)C(=O)O; Dab = NCC[C@H](N)C(=O)O

>  <compound>
N=C(N)NCC/C=C(\NC(=O)[C@H](CCCCN)NC(=O)[C@H](Cc1ccccc1F)NC(=O)[C@@H]1CCCN1C(=O)[C@@H](CCCN)NC(=O)CNC(=O)[C@H](CCN)NC(=O)[C@@H](NC(=O)[C@@H](N)CCCCN)[C@@H](O)CN)C(=O)O [NOSO-502] (H-K[Dab(3S-OH)][Dab]G[dOrn]P[Phe(2-F)]K[ΔZArg]-OH)

>  <value-units>
h

>  <half-life at 1 μM>
3.2

$$$$

###

assay-procedure: in vitro
assay-setup: monkey, liver microsomes, pH 7.4
Procedure: The microsome metabolic stability assays were performed by Cyprotex Discovery Ltd. (Macclesfield, UK). Pooled microsomes from different species (mouse, rat, dog, monkey, and human) were stored at −80°C prior to use. […] The final incubation volume was 500 μl. A minus cofactor control incubation was included for each compound tested, in which 0.1 M phosphate buffer (pH 7.4) was added instead of NADPH (minus NADPH). […] The test compound samples were analyzed by LC-MS/MS.
Non-standard residues stand in square brackets, D forms with d. Residues, ends and D or L forms follow the SMILES beside them. Dab(3S-OH) = NC[C@H](O)[C@H](N)C(=O)O; Phe(2-F) = N[C@@H](Cc1ccccc1F)C(=O)O; ΔZArg = N=C(N)NCC/C=C(\N)C(=O)O; dOrn = NCCC[C@@H](N)C(=O)O; Dab = NCC[C@H](N)C(=O)O
recorded-endpoint: half-life at 1 μM (h)

>  <compound>
N=C(N)NCC/C=C(\NC(=O)[C@H](CCCCN)NC(=O)[C@H](Cc1ccccc1F)NC(=O)[C@@H]1CCCN1C(=O)[C@@H](CCCN)NC(=O)CNC(=O)[C@H](CCN)NC(=O)[C@@H](NC(=O)[C@@H](N)CCCCN)[C@@H](O)CN)C(=O)O [NOSO-502] (H-K[Dab(3S-OH)][Dab]G[dOrn]P[Phe(2-F)]K[ΔZArg]-OH)

>  <value-units>
h

>  <obs-value>
2.45

$$$$

###

assay-procedure: in vivo
assay-setup: female, Sprague-Dawley, rat, plasma, iv, 15 mg/kg
Non-standard residues stand in square brackets, D forms with d. Residues, ends and D or L forms follow the SMILES beside them. Dab(3S-OH) = NC[C@H](O)[C@H](N)C(=O)O; Phe(2-F) = N[C@@H](Cc1ccccc1F)C(=O)O; ΔZArg = N=C(N)NCC/C=C(\N)C(=O)O; dOrn = NCCC[C@@H](N)C(=O)O; Dab = NCC[C@H](N)C(=O)O

>  <compound>
N=C(N)NCC/C=C(\NC(=O)[C@H](CCCCN)NC(=O)[C@H](Cc1ccccc1F)NC(=O)[C@@H]1CCCN1C(=O)[C@@H](CCCN)NC(=O)CNC(=O)[C@H](CCN)NC(=O)[C@@H](NC(=O)[C@@H](N)CCCCN)[C@@H](O)CN)C(=O)O [NOSO-502] (H-K[Dab(3S-OH)][Dab]G[dOrn]P[Phe(2-F)]K[ΔZArg]-OH)

>  <half-life / h>
1.5

$$$$
